For each record, write down the corresponding IC50.
Tested on: KYSE-450
protocol-details: Antiproliferative activity against human KYSE-450 cells incubated for 48 hrs measured by MTT assay
Format: functional, cell-based
test-settings: KYSE-450, 48 h
Reply with just the number (in µM).

query: // query IC50 value for entry O=C(c1cccc(CN[C@@H]2C[C@H]2c2ccc(F)c(F)c2)c1)N1CC2CCCCC2C1 (some centres undefined)
result: 68.9

query: Now consider `O=C(Nc1cccc(S(=O)(=O)N2CCOCC2)c1)c1cccc(CN[C@@H]2C[C@H]2c2ccc(F)c(F)c2)c1` and answer again.
result: 38.7

query: Now the molecule `O=C(NC1CC(F)(F)C1)c1cccc(CN[C@@H]2C[C@H]2c2ccc(F)c(F)c2)c1`
result: 64.5

---

tgt: Lysine-specific histone demethylase 1A (Homo sapiens)
protocol-details: Inhibition of recombinant LSD1 (unknown origin) preincubated for 10 mins in presence of H3K4Me2 measured after 30 mins by measuring fluorescence intensity by fluorescence based microplate reader
pIC50: −log10 of the molar value.
If the reported pIC50 equals or exceeds 7, assign T. If not, assign F.

query: Is pIC50 for `CN1CCN(c2ccc(NC(=O)c3cccc(CN[C@@H]4C[C@H]4c4ccc(F)c(F)c4)c3)cc2)CC1` at or above 7?
result: F

query: Then this compound: `COC(=O)c1cccc(NC(=O)c2cccc(CN[C@@H]3C[C@H]3c3ccc(F)c(F)c3)c2)c1`
result: T

query: Same for `COCCNC(=O)c1cccc(CN[C@@H]2C[C@H]2c2ccc(F)c(F)c2)c1`
result: F

query: One more compound: `CCN1CCN(c2ccc(NC(=O)c3cccc(CN[C@@H]4C[C@H]4c4ccc(F)c(F)c4)c3)cc2)CC1`
result: T

query: Next compound up: `O=C(c1cccc(CN[C@@H]2C[C@H]2c2ccc(F)c(F)c2)c1)N1CCc2ccccc21`
result: T

query: How about this compound: `NCC1CCN(C(=O)c2cccc(CN[C@@H]3C[C@H]3c3ccc(F)c(F)c3)c2)CC1`
result: F

query: Next entry: `Cc1ccc(NC(=O)c2cccc(CN[C@@H]3C[C@H]3c3ccc(F)c(F)c3)c2)cc1`
result: T

query: Please do the same for `CN1CCN(S(=O)(=O)c2cccc(NC(=O)c3cccc(CN[C@@H]4C[C@H]4c4ccc(F)c(F)c4)c3)c2)CC1` as well.
result: F

query: Record: `CN1CCN(C(=O)c2cccc(CN[C@@H]3C[C@H]3c3ccc(F)c(F)c3)c2)CC1`
result: F

query: Same for `NC1CCN(C(=O)c2cccc(CN[C@@H]3C[C@H]3c3ccc(F)c(F)c3)c2)CC1`
result: F

query: Consider next the compound `O=C(O)c1cccc(NC(=O)c2cccc(CN[C@@H]3C[C@H]3c3ccc(F)c(F)c3)c2)c1` in the same way.
result: F

query: Check `O=C(Nc1ccc(N2CCOCC2)c(F)c1)c1cccc(CN[C@@H]2C[C@H]2c2ccc(F)c(F)c2)c1` too.
result: F

query: Entry O=C(c1cccc(CN[C@@H]2C[C@H]2c2ccc(F)c(F)c2)c1)N1CC2CCCCC2C1 (stereo partly drawn) please
result: T

query: Same thing, different compound: `O=C(Nc1cccc(S(=O)(=O)N2CCOCC2)c1)c1cccc(CN[C@@H]2C[C@H]2c2ccc(F)c(F)c2)c1`
result: T

query: Note, next up: `O=C(O)c1cccc(CN[C@@H]2C[C@H]2c2ccc(F)c(F)c2)c1`
result: F
